Data origin, for the record: patent US20240002497A1

Molecular target: T1, huNav1.7α + β1-β2-β3 (human Nav1.7α co-expressed with human Navβ1, Navβ2 and Navβ3 on cells) (human)
T1 construct: also called huNav1.7-beta1-beta2-beta3; CHO FlpIn huNav1.7α + β1-β2-β3
Assay: binding FACS, CHO FlpIn cells
Procedure: Binding of the ISVDs to cell-expressed Nav1.7α was detected via murine anti-Flag (Sigma, catalog #F1804). Briefly, cells were resuspended in FACS buffer (PBS, 10% FBS, NaN₃) and transferred to a 96-well V-bottom plate at 1×10^5 cells/well. Purified FLAG3-tagged ISVD was diluted in FACS buffer and added to the cells for 30 minutes at 4° C. […] Prior to the read-out, the samples were resuspended in 1 μg/mL propidium iodide (Sigma, catalog #P4170) to exclude dead cells. […]
I'd appreciate it if you could supply Bmax values for the items below.
One number for each entry, in %.

# binder, Bmax / %
measured = [
    ("F010302383 (VHH, also called F0103387G04(L11V, A12V, K33R, R39Q, S50Y, S56D, T60A, D72G, W78V, S79Y, T83R, V89L, N93R, D99S, N100cG) + FLAG3-HIS6) VHH: EVQLVESGGGVVQPGGSLRLSCAASGPVFNINRMAWYRQAPGKQRELVAYVTPTGDISYADSVKGRFTISRGGSKRVYLQMNSLRPEDTALYYCRALLQPSSYSGTRTYWGQGTLVTVSS", 100),
]

Read the next record carefully.
Ask: Fill in reported Bmax for this entry: F010301656 (VHH, also called F0103387G04(K33R, S50Y, S56D, N93R)) VHH: EVQLVESGGGLAQPGGSLRLSCAASGPVFNINRMAWYRRAPGKQRELVAYVTPTGDISYTDSVKGRFTISRDGSKRWSLQMNSLTPEDTAVYYCRALLQPDSYSNTRTYWGQGTLVTVSS
Reply: 100
